protocol notes: Stability of compound in simulated intestinal fluid at pH 6.8 assessed as parent compound remaining measured after 120 mins by LC-MS/MS analysis
Type: physicochemical
particulars: read-out: Stability
observation type: remaining at 2 h

- compound: "CC1=C(C(=O)Nc2ccc(-c3nc4ccccc4c(=O)n3C)cc2)C(c2ccc(Cl)cc2Cl)NC(=O)N1 (stereo unspecified)"
  reading: "≥ 60%"

---

protocol notes: Stability of compound in simulated physiological fluid at pH 7.4 assessed as parent compound remaining measured after 120 mins by LC-MS/MS analysis
Assay type: physicochemical
particulars: read-out: Stability

- molecule: "CC1=C(C(=O)Nc2ccc(-c3nc4ccccc4c(=O)n3C)cc2)C(c2ccc(Cl)cc2Cl)NC(=O)N1 (stereo unspecified)"
  remaining at 2 h: "≥ 60%"
